These measurements were taken from ChEMBL document CHEMBL1208731.

tested on: A549; test: Cytotoxicity against human A549 cells after 72 hrs; format: functional, cell-based; conditions: A549, 72 h
pIC50: −log10 of the molar value.
QUANTITY_NAME: pIC50

COMPOUND: CCNc1nc(N)c2ncnc-2c(N)n1
QUANTITY_NAME: pIC50
MEASUREMENT: 4.42
